Test: qHTS assay to test for compound auto fluorescence at 460 nm (blue) in HepG2 cells (AID 720687)
Conditions: autofluorescence 405/460 nm, 1 h; series mostly up to 91.3 µM
From the text: U.S. Tox21 Program National Center for Advancing Translational Sciences [NCATS] NIH Chemical Genomics Center [NCGC] U.S. Environmental Protection Agency [EPA] National Institutes of Environmental Health Sciences [NIEHS] National Toxicology Program [NTP] U.S. Food and Drug Administration [FDA] Tox21 Assay Overview: Compound auto fluorescence often interferes with screening of the compound library against various biological targets and signaling pathways. […] This assay includes the blue fluorescence data. […]
Calls of active or inactive are those of the source. Calls follow the shape of the dose curve; as a rule, active = well fitted curve in the direction sought with a large enough effect in the repeat runs; inconclusive = weak or mixed curves; inactive = flat fitted curve, though single readings scatter.
Measured quantity: outcome

In the examples that follow, each entry is paired with its recorded outcome.
>>> recorded_result("CN1CCN(C(=O)O[C@H]2c3nccnc3C(=O)N2c2ccc(Cl)cn2)CC1")
"inactive"
>>> recorded_result("CC(CCc1ccccc1)NC(C)C(O)c1ccc(O)cc1 (stereo unspecified)")
"inactive"
>>> recorded_result("CC(C)(C)C(=O)C(Oc1ccc(Cl)cc1)n1cncn1 (stereo unspecified)")
"inactive"
>>> recorded_result("CCC(C)(C)c1cc(-n2nc3ccccc3n2)c(O)c(C(C)(C)CC)c1")
"inactive"
>>> recorded_result("COc1cc(OC)nc(Oc2cccc(Oc3nc(OC)cc(OC)n3)c2C(=O)O)n1")
"inactive"

// next entry
Problem: Quick check: outcome of `CCOC(=O)/C=C(C)/C=C/C[C@@H](C)CCCC(C)C` ?
Result: inactive

---

Molecular target: Estrogen receptor (Homo sapiens)
Assay: qHTS assay to identify small molecule agonists of the estrogen receptor alpha (ER-alpha) signaling pathway in the presence of an antagonist (AID 1259383); also: nearly all actives have a fitted effect of over 15% in size
Settings: VM7Luc4E2 cells, ERE-luciferase, +ICI-182,780, 22 h; series mostly up to 92.4 µM
The source made the active and inactive calls. Calls follow the shape of the full dose curve.
Thanks in advance; please answer with one of these: active, inactive

>>> category("CC(Oc1ccc(Oc2ncc(C(F)(F)F)cc2Cl)cc1)C(=O)O (stereo not drawn)")
"inactive"
>>> category("c1coc(-c2nc3ccccc3[nH]2)c1")
"active"
>>> category("[O]=[Cd]")
"inactive"
>>> category("Cc1ncc(CNC(=O)N(CCCl)N=O)c(N)n1")
"inactive"
>>> category("CC(C(=O)c1ccccc1)N(C)C (stereo not drawn)")
"inactive"

Problem: # lookup: test call for `COC(=O)c1c(C(F)F)nc(C(F)(F)F)c(C2=NCCS2)c1CC(C)C`
Result: inactive

Problem: # lookup: test call for `BrCCCCCCBr`
Result: inactive

Problem: # lookup: test call for `O=S(=O)(O)C(F)(F)C(F)(F)C(F)(F)C(F)(F)C(F)(F)C(F)(F)F`
Result: inactive

Problem: # lookup: test call for `CCOC(=O)CP(=O)(OCC)OCC`
Result: inactive

Problem: # lookup: test call for `COC(=O)C1=CCCN(C)C1`
Result: inactive

Problem: # lookup: test call for `CNC(=O)Oc1ccc(N(C)C)c(C)c1`
Result: inactive

---

Target: Androgen receptor (Homo sapiens)
Assay: qHTS assay to identify small molecule antagonists of the androgen receptor (AR) signaling pathway using the MDA cell line in the presence of 0.5 nM R1881 (AID 1259243); also: nearly all actives have a fitted effect of over 50% in size
Settings: MDA-kb2 MMTV-luciferase, R1881 0.5 nM, 16 h; series mostly up to 92.4 µM
Records with an inconclusive call do not appear. Activity calls are given as the source filed them. The call rests on the fitted dose curve; in most records, active means well fitted inhibition curve with a large enough effect in the repeat runs; inconclusive means weak or mixed curves; inactive means no such curve, though single readings can be large or run the other way.
Thanks in advance; please answer with one of these: y (active), n (inactive)

Solved entries:
>>> category("CCCCCCI")
"n"
>>> category("CC(C)CC#N")
"n"

Problem: # lookup: test call for `CCCCOC(=O)c1ccccc1C(=O)O`
Result: n

Problem: # lookup: test call for O=C1OC(CCN2CCCCC2)OC1(c1ccccc1)c1ccccc1 (stereo not drawn)
Result: n

Problem: # lookup: test call for `O=C(Nc1ccccc1)c1ccccc1I`
Result: n

Problem: # lookup: test call for CC(C)(C)NCC(O)c1cc(Cl)c(N)c(Cl)c1 (stereo not drawn)
Result: n

Problem: # lookup: test call for `CCOP(=S)(OCC)Oc1ncn(-c2ccccc2)n1`
Result: n
